Target: HLA-A*02:01 (Homo sapiens, UniProt P04439, D140Y/D185E/D98H/E176V/E277Q/G131W/G231S/I119V/I121R/I166T/I218V/L300P/L318F/N151K/N90K/P208A/P217A/Q86G/Q94H/R138H/R169H/T345S)
Assay: MHC binding assay: UV-ligand exchange with β2m ELISA (peptide exchange yield)
Settings: binding to HLA-A*02:01 evaluated by peptide exchange yield (UV-ligand exchange, β2m ELISA)
Metric name: Peptide exchange

1) 68 (QLMNLIRSV; listed as Homo sapiens) [compound 68]: +++ (≥50 = +++)
2) 160 (TLQEWLTEV; listed as Homo sapiens) [compound 160]: +++ (≥50 = +++)
3) 136 (LLWDAPAKC; listed as Homo sapiens) [compound 136]: +++ (≥50 = +++)
